Answer each item with its documented kon.
system tested: T1, murine pro-myostatin (mouse, UniProt O08689 25-376, biotinylated (in the SPR assay))
T1 construct: also called proGDF8 (mouse); mouse pro-myostatin
assay protocol: SPR Biacore 8K, biotin-antigen captured
One number for each entry, in M⁻¹ s⁻¹.

Give one value of kon per listed binder.
1. Ab102 (antibody, human IgG4 S228P, kappa, V domains shown) VH: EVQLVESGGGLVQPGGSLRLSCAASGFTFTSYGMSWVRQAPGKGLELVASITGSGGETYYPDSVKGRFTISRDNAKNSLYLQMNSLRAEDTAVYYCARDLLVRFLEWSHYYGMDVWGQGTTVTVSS VL: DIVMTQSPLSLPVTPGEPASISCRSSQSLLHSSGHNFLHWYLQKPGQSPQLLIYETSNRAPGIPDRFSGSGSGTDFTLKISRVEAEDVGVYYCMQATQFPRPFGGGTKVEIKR
2. Ab101 (antibody, human IgG4 S228P, kappa, V domains shown) VH: EVQLVESGGGLVQPGGSLRLSCAASGSAFSSYGMSWVRQAPGKGLELVASINSNGGSTYYPDSVKGRFTISRDNAKNSLYLQMNSLRAEDTAVYYCARDLLVRFLEWSHYYGMDVWGQGTTVTVSS VL: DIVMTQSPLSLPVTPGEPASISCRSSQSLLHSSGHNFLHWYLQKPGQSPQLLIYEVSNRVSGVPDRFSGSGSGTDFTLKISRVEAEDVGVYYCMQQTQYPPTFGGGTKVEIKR

1: 6.11e+06; 2: 4.34e+06
